Entry source: the DeepSol protein solubility set

- PROCEDURE DETAILS: soluble on expression in E. coli; label from the status in PepcDB or PDB records
PROPERTY NAME: soluble on expression in E. coli

{"SEQ STRING": "MGHHHHHHSHMTDPSKLAVAVVCSSNMNRSMEAHNFLAKKGFNVRSYGTGERVKLPGMAFDKPNVYEFGTKYEDIYRDLESKDKEFYTQNGLLHMLDRNRRIKKCPERFQDTKEQFDIIVTVEERVYDLVVMHMESMESVDNRPVHVLNVDVVDNAEDALMGAFVITDMINMMAKSTDLDNDIDELIQEFEERRKRVILHSVLFY", "VALUE REPORTED": "soluble"}
{"SEQ STRING": "MFTKSGDDGNTNVINKRVGKDSPLVNFLGDLDELNSFIGFAISKIPWEDMKKDLERVQVELFEIGEDLSTQSSKKKIDEKYVKWLEERTVEYRKESGPVKLFVIPGGSEEASVLHVTRSVARRVERNAVKYTKELPEINRMIIVYLNRLSSLLFAMALVANKRRNVSEKIYDIGKFW", "VALUE REPORTED": "soluble"}
{"SEQ STRING": "MGSDKIHHHHHHMSTELNTMALSVPQGAGLDGYIQSVNRIPMLTAEKEKALATRLYENSDLDAAKELIMSHLRFVVHVARSYSGYGLPQADLIQEGNIGLMKAVKRFDPSVGVRLVSFAVHWIKAEIHEYVLRNWRVVKVATTKAQRKLFFNLRKMKKRLGWFSQKEVETVANELGVSTKEVLEMETRMSAHDQAFELSSDDDDSKEGSAYSPAMYLEDKRSDLAAEIEAKDYENHTQQKLLGAMSHLDERSQDIVQSRWLSEDKTTLHDLAEKYEVSAERVRQLEQNAMKKLRLAMS", "VALUE REPORTED": "not soluble"}
{"SEQ STRING": "MLSFAPYRFSQVLEHQCTRNGSVLIRHTEEFTSKTCSRCGHIHYSLGGQKIFKCSNCGNHLPRDWNGALGNFLKALWDTTLEHHHHHH", "VALUE REPORTED": "not soluble"}

Short answer for "MGSDKIHHHHHHMSVMFDPDTAIYPFPPKPTPLSIDEKAYYREKIKRLLKERNAVMVAHYYTDPEIQQLAEETGGCISDSLEMARFGAKHPASTLLVAGVRFMGETAKILSPEKTILMPTLQAECSLDLGCPVEEFNAFCDAHPDRTVVVYANTSAAVKARADWVVTSSIAVELIDHLDSLGEKIIWAPDKHLGRYVQKQTGGDILCWQGACIVHDEFKTQALTRLQEEYPDAAILVHPESPQAIVDMADAVGSTSQLIAAAKTLPHQRLIVATDRGIFYKMQQAVPDKELLEAPTAGEGATCRSCAHCPWMAMNGLQAIAEALEQEGSNHEVHVDERLRERALVPLNRMLDFAATLRG" : soluble on expression in E. coli was not soluble

Short answer for "MGSDKIHHHHHHMILSRGRNYVFIHIPKTGGTALALALESRAMAGDEMLGDTPKAVKRRRRLHGTETRGRLWKHSTLADIEGLASREELRQMFAFTLVRNPFDRVVSLYHWLKEQSFDHPMVPLAHSLPFTSFVTDPLVMRALKSQPALSYMMQSDGYEHCSLYIRLEYFAKDAAPLFDHLGFALELPRVNESRRDPDWRVYYDSQAVDAVRTCCQLEIERFEYSFNDYPLSL" : soluble on expression in E. coli was not soluble

Short answer for "MGSDKIHHHHHHENLYFQGDSFKTKSGKELTITFIKHGSLMLTYDNHSIQVDPVSEYADYTTFPKADIILITHEHGDHLDPKAIQAVEKSDTEIIANENSQKKLGKGKVLKNGDTDTSISYMKIEAVPAYNTTPGRDKYHPRHRDNGYILTFDGLRVYIAGDTEDIPEMKDLKDIDIAFLPVNQPYTMTVSQAAKAARMFSPKILYPYHYGDTKIGELKDALKDSGIDVRIRELQ" : soluble on expression in E. coli was soluble

Short answer for "MSDRNCYKCQQPGHISRNCPNGESDGGRRGGGGGSTCYNCQETGHFSRDCPKGGSGGGQRGGGGGGGSCYNCGGRGHYSRDCPSARSEGGSGGYGGRGGEGRSFGGQKCYNCGRSGHISRECTESGSAEEKRCYQCQETGHISRDCPSQTN" : soluble on expression in E. coli was soluble

Short answer for "MGSDKIHHHHHHMPDAAGGVRVPHPPRPFDRPDRPAARLCRTQQLHPRVPPLERHLAPRLAGTAEPDRALKPQDKSLSKADPMTRLLLLEGNTADKRARGRELGVRSSSEIYAQAIAAHFPRIELDVLNGADEGEAIPHDRSWADYDGFVVTGSSLHAYDREFAVTNQIALVAQAAEHGLPIFGSCWGLQIAVMAAGGEVAYNPRGREVGFARKIALNDAGRAHPMFGAKQHVFDAPCIHYDEVVRMPDGATLLASNGHSLVQAAVIPLGQSEVWAVQYHPEFDLAQLVQLYTLYAADMIAQGFFSNEAELVAYRDKIARLAQDPTDAGLAWQLGIDADVLDPRQRAAEIIAWIESRVLNGT" : soluble on expression in E. coli was not soluble

Short answer for "TQLQLKDSMEKFGALYHSSSLGMLIVIEREIVDANHRALELLSYKKSDLLEQSLDTLCPTTADECRVDAMYRELQHGRNQFEAQMLDSHGETIDCLIEATLIQHNGHTALMLLLQDLS" : soluble on expression in E. coli was not soluble

Short answer for "MAIPYVVRKKADLTSGERKELWYGVPSKIQDRGGVQNKELAQVVELRGGFHRGQVEGILVEVADAIRYLLSMGQSVTIDGLGTFQTALTSPGFERPEQVTPGQVSVSRVYFVANSALRDRMKKTKCMRIPFKYYMSESMLTKEMKKADQEQEQTEE" : soluble on expression in E. coli was not soluble

Short answer for "MGHHHHHHSHMVKDIIIASFYKFIPLNDFESLREPILTKMHEIGIKGTIILAHEGVNGGFAGNREQMNVFYDYLRSDSRFADLHFKETYDNKNPFDKAKVKLRKEIVTMGVQKVDPSYNAGTYLSPEEWHQFIQDPNVILLDTRNDYEYELGTFKNAINPDIENFREFPDYVQRNLIDKKDKKIAMFCTGGIRCEKTTAYMKELGFEHVYQLHDGILNYLESIPESESLWEGKCFVFDDRVAVDQKLDRVYPQLPQDYKYEREQK" : soluble on expression in E. coli was soluble

Short answer for "GSDIGQVIHPDDFDKAAADDYVLHEDGEKIYFLIKSKTDEYCFTNLALVHLDGESAVSSKRVLYRYPYAHYPIRHVMFETAGTVDLDVEIKFEIGGKHYSIDVDKKQLEHVKDLYKALLAIAEKQYEGQKMLEFANSSLNHSVTILGGLRQGDMNVPQTFKDLSQESFDWLQGHYYKWNQKDFGSFYEKYINN" : soluble on expression in E. coli was soluble

Short answer for "MTFAEYFKNWYIFYKKPKVSKVTLNRYQYTYNVINEYFGNKLLKDITRANYQKFIVKYGQNHSPNTMKMINNCIKACVKNAVYDEEIKKDFTYNIELISNRDNVVQLEHHHHHH" : soluble on expression in E. coli was not soluble

----------
- PROCEDURE DETAILS: soluble on expression in E. coli; label from the status in PepcDB or PDB records
PROPERTY NAME: soluble on expression in E. coli

{"SEQ STRING": "MSLIKITIGICEYPSVLKSAVYGFEEMFLLANRICKEQNIEVVFEPILIPHTGLTAERLTVVLLPPASLDNYYLAPDDALIRWLKAHYSQGTVLSSACAGVFILAATNLIDSREVTTHWALAETFSQAFPSIALDSNKILINHGDIVTAGGMMSWLDLGFELIAKYASPGVVRQLGKTLVIDTAQRAQSYYQQFHPSFSHGDYAIVSIQQIMHQRYAEPLSIKQLAKQANLTERTMQRRFLKATGYNPNQYLQRLRIQSACHLLESTQHSFDSISHQVGYEDTSACRKVFINVIGLTPREFRKRFAEGHHHHHH", "soluble on expression in E. coli": "soluble"}
{"SEQ STRING": "LTTHNFARKTFLKLAFCDICQKFLLNGFRCQTCGYKFHEHCSTKVPTMCVDW", "soluble on expression in E. coli": "soluble"}
{"SEQ STRING": "MELSSEHKALFSLLRAGLWEREPDDLSPFPLTDAQWWNVYRMAVRQTVTGIVCRGLHHLPEALLPGDALMIRWVAETDRIERKNRRMDAVVCLLAQRMGRNGLHPVLLKGQGVAAFYEHPLTRECGDIDLCFLSEEEEREAAELMRRVGCRTEKQPDGSNCYSWQGVEVEHHTRLFDLHNPLLKVYLSALVREHGFTEFRPGGRDGLPEGNQSGEFPATISVPSPLPNLLLLNAHLLKHLLGHGVGLRQFCDMARAYHTLCGSYSPEGLEAVYRRTGLLRWSAQLHTFLTEYLGLHRAELPYADTDACSSPELLRIVLEGGNFGQYGGTKGKASQARWERKLRTFLSFWKHRGFSSAYARKEAFWISVRLIIGNLR", "soluble on expression in E. coli": "not soluble"}
{"SEQ STRING": "MNAKEILVHSLRLLENGDARGWCDLFHPEGVLEFPYAPPGWKTRFEGRETIWAHMRLFPEHLTVRFTDVQFYETADPDLAIGEFHGDGVATVSGGKLAQDYISVLRTRDGQILLYRDFWNPLRHLEALGGVEAAAKIVQGA", "soluble on expression in E. coli": "soluble"}
{"SEQ STRING": "MGIPSDFSNTGLTGFNVSSTKLVKIEQQYKGVKGKKFISPGGGKFVRIDDPGAVDSNGLRTADASNTSISLETGNTWLPRLHADGTLTCGGKCAWLECTNVTIPKNKRLWFRYAFLRFSSLPADSFSVLLCFPNDDTSVPPLPPYWICSVKELQENRGNINQTDWTECFVEIDKNADFHGTLRWVVATGHNLADQNSIPDNTRFTRPGCLLIDAIDIR", "soluble on expression in E. coli": "not soluble"}
{"SEQ STRING": "MRLTSKGRYAVTAMLDVALNSEAGPVPLADISERQGISLSYLEQLFSRLRKNGLVSSVRGPGGGYLLGKDASSIAVGEVISAVDESVDATRCQGKGGCQGGDKCLTHALWRDLSDRLTGFLNNLEHHHHHH", "soluble on expression in E. coli": "not soluble"}

Short answer for "MGSDKIHHHHHHMMQGFLLQTQSIRDEDLIVRVLTKNQLKTLYRFYGKRHSVLNVGRKIDFEEENDDKFLPKLRNILHLGYIWEREMERLFFWQRFCALLFRHLEGVHSLDSVYFDTLDDGANKLAKQHPLRVILEMYATLLNFEGRLQSYNSCFLCDAKLERSVALAQGFILAHPSCLKAKSLNLEKIQAFFRTQSTIDLETEEVEELWRTLNLGF" : soluble on expression in E. coli was not soluble

Short answer for "MDSADPQLNRFLQQLQAETQRQKFTEQVHTLTGRCWDVCFADYRPPSKMDGKTQTCIQNCVNRMIDASNFMVEHLSKMNGGHV" : soluble on expression in E. coli was not soluble

Short answer for "MGSDKIHHHHHHMRKVGMTTTIPVEVVYAAGLIPVDLNNIFVTHENPQSLVEEAEMAGYPRNLCAWIKGLYSTILQNDDIQTLIAVTQGDCSNTHALMETLEMAGVNVIPFAFPFDRDYDLLKLQMEKLINTLGTTWDEVYHAKKRLDAIRSKVHELDRLTWQGDRVRGWDNHLYQVCCSDLEGDPEDFGRRVDQYLAELPAKEPIKAKVRLAYIGVPPIMDDLYDYVEERGARVVFNEVQRQFTMPFATDDIVEQYRIYSYPYGIFYRLQDISRELEQRQVDGVIHYAQSFCYRQIEDLIVRQKLKYPILTLEGDKPNKLDARTRMRLDAFLDMLR" : soluble on expression in E. coli was not soluble
